# System: Staphylococcus aureus
# ASSAY_METHOD_TEXT: Antibacterial activity against Staphylococcus aureus ATCC 25923 by NCCLS two-fold dilution method
# Type: functional
# COND: Staphylococcus aureus, ATCC 25923
TEST_READOUT: log10 of MIC (log10 of the value in µg/mL)
Scale type: logarithmic (base 10). Underlying MIC unit: µg/mL.

INPUT: // query log10 of MIC value for entry COc1ccc(C(c2nnnn2C2CCCCC2)N2CCN(c3cc4c(cc3F)c(=O)c(C(=O)O)cn4Cc3ccc(C(F)(F)F)cc3)CC2)c2ccccc12 (stereo not given)
OUTPUT: 1.70

INPUT: Also CCn1cc(C(=O)O)c(=O)c2cc(F)c(N3CCN(C(c4ccccc4)c4nnnn4C4CCCCC4)CC3)cc21 (stereo not given) , if possible.
OUTPUT: 0.19

INPUT: Also CC(C)(C)n1nnnc1C(c1ccncc1)N1CCN(c2cc3c(cc2F)c(=O)c(C(=O)O)cn3Cc2ccc(C(F)(F)F)cc2)CC1 (stereo not given) , if possible.
OUTPUT: 1.70

INPUT: Also CCn1cc(C(=O)O)c(=O)c2cc(F)c(N3CCN(C(c4ccc(OC)c5ccccc45)c4nnnn4C(C)(C)C)CC3)cc21 (stereo not given) , if possible.
OUTPUT: 1.10

INPUT: Also O=C(O)c1cn(C2CC2)c2cc(N3CCNCC3)c(F)cc2c1=O , if possible.
OUTPUT: -0.11

INPUT: Also CCn1cc(C(=O)O)c(=O)c2cc(F)c(N3CCN(C(c4ccc(F)cc4)c4nnnn4C(C)(C)C)CC3)cc21 (stereo not given) , if possible.
OUTPUT: -0.11

INPUT: Also CC(C)(C)n1nnnc1C(c1ccccc1)N1CCN(c2cc3c(cc2F)c(=O)c(C(=O)O)cn3Cc2ccc(C(F)(F)F)cc2)CC1 (stereo not given) , if possible.
OUTPUT: 1.70

INPUT: Also CCn1cc(C(=O)O)c(=O)c2cc(F)c(N3CCN(C(c4ccncc4)c4nnnn4C(C)(C)C)CC3)cc21 (stereo not given) , if possible.
OUTPUT: 0.19

INPUT: Also CCn1cc(C(=O)O)c(=O)c2cc(F)c(N3CCN(C(c4ccc(OC)c5ccccc45)c4nnnn4C4CCCCC4)CC3)cc21 (stereo not given) , if possible.
OUTPUT: 0.80

INPUT: Also CCn1cc(C(=O)O)c(=O)c2cc(F)c(N3CCN(C(c4ccc(OC)c(OC)c4OC)c4nnnn4C(C)(C)C)CC3)cc21 (stereo not given) , if possible.
OUTPUT: 0.19

INPUT: Also CC(C)c1ccc(C(c2nnnn2C(C)(C)C)N2CCN(c3cc4c(cc3F)c(=O)c(C(=O)O)cn4Cc3ccc(C(F)(F)F)cc3)CC2)cc1 (stereo not given) , if possible.
OUTPUT: 0.49

INPUT: Also CCn1cc(C(=O)O)c(=O)c2cc(F)c(N3CCN(C(c4ccc(OC)c(OC)c4OC)c4nnnn4C4CCCCC4)CC3)cc21 (stereo not given) , if possible.
OUTPUT: 0.19

INPUT: Also CCn1cc(C(=O)O)c(=O)c2cc(F)c(N3CCN(C(c4ccco4)c4nnnn4C4CCCCC4)CC3)cc21 (stereo not given) , if possible.
OUTPUT: -0.11

INPUT: Also CC(C)c1ccc(C(c2nnnn2C2CCCCC2)N2CCN(c3cc4c(cc3F)c(=O)c(C(=O)O)cn4Cc3ccc(C(F)(F)F)cc3)CC2)cc1 (stereo not given) , if possible.
OUTPUT: 1.70

INPUT: Also O=C(O)c1cn(Cc2ccc(C(F)(F)F)cc2)c2cc(N3CCN(C(c4ccccc4)c4nnnn4C4CCCCC4)CC3)c(F)cc2c1=O (stereo not given) , if possible.
OUTPUT: 1.10
